Experiment: Clinical pharmacokinetics: plasma CYH33 and I27 by LC/MS/MS
Format: in vivo, human
Settings: human, plasma, oral, 40 mg, CYH33, Cycle 1 Day 1, 40 mg (n = 3); read-out: AUC0-24h, mean (CV%)
measurement_kind: AUC(0-t)
Write the figure, then the unit, nothing else.

Exercise: Look up AUC(0-t) for this compound: COC(=O)Nc1cc(C(F)(F)F)c(-c2nc(N3CCOCC3)c3cc(CN4CCN(S(C)(=O)=O)CC4)cn3n2)cn1
Solution: 1320 ng·h/mL

----------
Assay: Clinical pharmacokinetics: plasma CYH33 and I27 by LC/MS/MS
Assay type: in vivo, human
Settings: C1D1, 1 mg, 36 h
Procedure: The PK characteristics of CYH33 and its active metabolite I27 were evaluated after single and multiple dose administrations. PK data were obtained from 37 patients from 7 dose cohorts: 1 mg (n = 1), 5 mg (n = 1), 10 mg (n = 2), 20 mg (n = 6), 30 mg (n = 12), 40 mg (n = 13), and 60 mg (n = 2). […] Based on the single dose PK data for CYH33 of the first 5 patients at doses of 1, 5, 10 and 20 mg, the PK and metabolic characteristics of CYH33 and I27 were evaluated. […]
measurement_kind: CYH33 plasma concentration, mean (ng/mL)
Report the figure in ng/mL without appending any unit label.

Exercise: Look up CYH33 plasma concentration, mean for this compound: COC(=O)Nc1cc(C(F)(F)F)c(-c2nc(N3CCOCC3)c3cc(CN4CCN(S(C)(=O)=O)CC4)cn3n2)cn1 [CYH33]
Solution: 0

----------
Test: Clinical pharmacokinetics: plasma CYH33 and I27 by LC/MS/MS
Type: in vivo, human
Conditions: human, plasma, oral; C1D1, 30 mg, 12 h
measurement_kind: concentration at 12 h (µg/mL)
Report the figure in µg/mL without appending any unit label.

Exercise: Look up concentration at 12 h for this compound: COC(=O)Nc1cc(C(F)(F)F)c(-c2nc(N3CCOCC3)c3cc(CN4CCN(S(C)(=O)=O)CC4)cn3n2)cn1
Solution: 0.0499

----------
Assay: Clinical pharmacokinetics: plasma CYH33 and I27 by LC/MS/MS
Format: in vivo, human
Conditions: C1D1, 5 mg, 12 h
measurement_kind: CYH33 plasma concentration, mean

Exercise: Look up CYH33 plasma concentration, mean for this compound: COC(=O)Nc1cc(C(F)(F)F)c(-c2nc(N3CCOCC3)c3cc(CN4CCN(S(C)(=O)=O)CC4)cn3n2)cn1
Solution: 9.7 ng/mL

----------
Assay: Clinical pharmacokinetics: plasma CYH33 and I27 by LC/MS/MS
Format: in vivo, human
Settings: human, plasma, oral, 1 mg, CYH33, Cycle 1 Day 28, 1 mg (n=1); read-out: Cmax, mean
measurement_kind: Cmax (ng/mL)
Report the figure in ng/mL without appending any unit label.

Exercise: Look up Cmax for this compound: COC(=O)Nc1cc(C(F)(F)F)c(-c2nc(N3CCOCC3)c3cc(CN4CCN(S(C)(=O)=O)CC4)cn3n2)cn1 [CYH33]
Solution: 4.8

----------
Assay: Clinical pharmacokinetics: plasma CYH33 and I27 by LC/MS/MS
Format: in vivo, human
Conditions: C1D28, 60 mg, 0.5 h
measurement_kind: CYH33 plasma concentration, mean
Write the figure, then the unit, nothing else.

Exercise: Look up CYH33 plasma concentration, mean for this compound: COC(=O)Nc1cc(C(F)(F)F)c(-c2nc(N3CCOCC3)c3cc(CN4CCN(S(C)(=O)=O)CC4)cn3n2)cn1
Solution: 155 ng/mL

----------
Test: Clinical pharmacokinetics: plasma CYH33 and I27 by LC/MS/MS
Format: in vivo, human
Conditions: C1D1, 60 mg, 48 h
measurement_kind: CYH33 plasma concentration, mean (ng/mL)
Report the figure in ng/mL without appending any unit label.

Exercise: Look up CYH33 plasma concentration, mean for this compound: COC(=O)Nc1cc(C(F)(F)F)c(-c2nc(N3CCOCC3)c3cc(CN4CCN(S(C)(=O)=O)CC4)cn3n2)cn1
Solution: 61.4

----------
Experiment: Clinical pharmacokinetics: plasma CYH33 and I27 by LC/MS/MS
Assay type: in vivo, human
Conditions: C1D28, 10 mg, 12 h
measurement_kind: CYH33 plasma concentration, mean

Exercise: Look up CYH33 plasma concentration, mean for this molecule: COC(=O)Nc1cc(C(F)(F)F)c(-c2nc(N3CCOCC3)c3cc(CN4CCN(S(C)(=O)=O)CC4)cn3n2)cn1 [CYH33]
Solution: 47.9 ng/mL

----------
Assay: Clinical pharmacokinetics: plasma CYH33 and I27 by LC/MS/MS
Type: in vivo, human
Conditions: C1D28, 60 mg, 12 h
measurement_kind: CYH33 plasma concentration, mean (ng/mL)
Report the figure in ng/mL without appending any unit label.

Exercise: Look up CYH33 plasma concentration, mean for this molecule: COC(=O)Nc1cc(C(F)(F)F)c(-c2nc(N3CCOCC3)c3cc(CN4CCN(S(C)(=O)=O)CC4)cn3n2)cn1
Solution: 163

----------
Assay: Clinical pharmacokinetics: plasma CYH33 and I27 by LC/MS/MS
Type: in vivo, human
Conditions: human, plasma, oral; C1D28, 20 mg, 0 h
measurement_kind: concentration at 0 h (ng/mL)
Report the figure in ng/mL without appending any unit label.

Exercise: Look up concentration at 0 h for this molecule: COC(=O)Nc1cc(C(F)(F)F)c(-c2nc(N3CCOCC3)c3cc(CN4CCN(S(C)(=O)=O)CC4)cn3n2)cn1
Solution: 85.1

----------
Assay: Clinical pharmacokinetics: plasma CYH33 and I27 by LC/MS/MS
Type: in vivo, human
Details: human, plasma, oral, 1 mg, CYH33, Cycle 1 Day 1, 1 mg (n = 1); read-out: AUC0-24h, mean (CV%)
Protocol: The PK characteristics of CYH33 and its active metabolite I27 were evaluated after single and multiple dose administrations. PK data were obtained from 37 patients from 7 dose cohorts: 1 mg (n = 1), 5 mg (n = 1), 10 mg (n = 2), 20 mg (n = 6), 30 mg (n = 12), 40 mg (n = 13), and 60 mg (n = 2). […] Based on the single dose PK data for CYH33 of the first 5 patients at doses of 1, 5, 10 and 20 mg, the PK and metabolic characteristics of CYH33 and I27 were evaluated. […]
measurement_kind: AUC(0-t) (ng·h/mL)
Report the figure in ng·h/mL without appending any unit label.

Exercise: Look up AUC(0-t) for this compound: COC(=O)Nc1cc(C(F)(F)F)c(-c2nc(N3CCOCC3)c3cc(CN4CCN(S(C)(=O)=O)CC4)cn3n2)cn1
Solution: 26

----------
Test: Clinical pharmacokinetics: plasma CYH33 and I27 by LC/MS/MS
Format: in vivo, human
Settings: human, plasma, oral; C1D28, 10 mg, 0 h
measurement_kind: concentration at 0 h (ng/mL)
Report the figure in ng/mL without appending any unit label.

Exercise: Look up concentration at 0 h for this molecule: COC(=O)Nc1cc(C(F)(F)F)c(-c2nc(N3CCOCC3)c3cc(CN4CCN(S(C)(=O)=O)CC4)cn3n2)cn1 [CYH33]
Solution: 34.8

----------
Test: Clinical pharmacokinetics: plasma CYH33 and I27 by LC/MS/MS
Assay type: in vivo, human
Settings: C1D1, 10 mg, 1 h
measurement_kind: CYH33 plasma concentration, mean (ng/mL)
Report the figure in ng/mL without appending any unit label.

Exercise: Look up CYH33 plasma concentration, mean for this molecule: COC(=O)Nc1cc(C(F)(F)F)c(-c2nc(N3CCOCC3)c3cc(CN4CCN(S(C)(=O)=O)CC4)cn3n2)cn1
Solution: 30.2

----------
Experiment: Clinical pharmacokinetics: plasma CYH33 and I27 by LC/MS/MS
Format: in vivo, human
Details: human, plasma, oral; C1D1, 30 mg, 4 h
measurement_kind: concentration at 4 h (ng/mL)
Report the figure in ng/mL without appending any unit label.

Exercise: Look up concentration at 4 h for this molecule: COC(=O)Nc1cc(C(F)(F)F)c(-c2nc(N3CCOCC3)c3cc(CN4CCN(S(C)(=O)=O)CC4)cn3n2)cn1 [CYH33]
Solution: 81.2

----------
Test: Clinical pharmacokinetics: plasma CYH33 and I27 by LC/MS/MS
Format: in vivo, human
Conditions: human, plasma, oral, 20 mg, CYH33, Cycle 1 Day 1, 20 mg (n = 5); read-out: Cmax, mean (CV%)
measurement_kind: Cmax (ng/mL)
Report the figure in ng/mL without appending any unit label.

Exercise: Look up Cmax for this compound: COC(=O)Nc1cc(C(F)(F)F)c(-c2nc(N3CCOCC3)c3cc(CN4CCN(S(C)(=O)=O)CC4)cn3n2)cn1
Solution: 56.3

----------
Assay: Clinical pharmacokinetics: plasma CYH33 and I27 by LC/MS/MS
Assay type: in vivo, human
Details: human, plasma, oral; C1D1, 20 mg, 72 h
Protocol: The PK characteristics of CYH33 and its active metabolite I27 were evaluated after single and multiple dose administrations. PK data were obtained from 37 patients from 7 dose cohorts: 1 mg (n = 1), 5 mg (n = 1), 10 mg (n = 2), 20 mg (n = 6), 30 mg (n = 12), 40 mg (n = 13), and 60 mg (n = 2). […] Based on the single dose PK data for CYH33 of the first 5 patients at doses of 1, 5, 10 and 20 mg, the PK and metabolic characteristics of CYH33 and I27 were evaluated. […]
measurement_kind: concentration at 72 h (ng/mL)
Report the figure in ng/mL without appending any unit label.

Exercise: Look up concentration at 72 h for this molecule: COC(=O)Nc1cc(C(F)(F)F)c(-c2nc(N3CCOCC3)c3cc(CN4CCN(S(C)(=O)=O)CC4)cn3n2)cn1 [CYH33]
Solution: 7.1

Data provenance is paper PMC9669016.
